Biological target: UniProtKB Q13627
Experiment: DYRK1A activity Tau assay: pSer396 Tau in SH-SY5Y cells by ELISA / western blot
Settings: overnight (16-18 h) exposure
Give measured pEC50 for each item. Keep answers brief.
Please keep in mind that pEC50 is minus log10 of the molar concentration; only the number is needed.

INPUT: Would you mind telling me what pEC50 value was observed for O=C(NC1CCN(CCF)CC1)c1n[nH]c2ccc(-c3cccnc3)cc12 ?
OUTPUT: 8.22

INPUT: Likewise for NC1CN(c2cncc(-c3ccc4[nH]nc(C(=O)Nc5cccnc5)c4c3)n2)C1 ?
OUTPUT: 9.00

INPUT: Likewise for CC(C)N1CCC(NC(=O)c2n[nH]c3ccc(-c4cccc(F)c4F)cc23)CC1 ?
OUTPUT: 7.00

INPUT: Likewise for CC(C)CCN1CCC(NC(=O)c2n[nH]c3ccc(-c4cccnc4)cc23)CC1 ?
OUTPUT: 7.92

INPUT: Likewise for CC(C)CN1CCC(NC(=O)c2n[nH]c3ccc(-c4cncc(F)c4)cc23)CC1 ?
OUTPUT: 7.36

INPUT: Likewise for CC(C)Oc1ccc(NC(=O)c2n[nH]c3ccc(-c4cncc(CN5CCCCC5)c4)cc23)cn1 ?
OUTPUT: 8.52

INPUT: Likewise for CC(C)NC(=O)c1n[nH]c2ccc(-c3cncnc3)cc12 ?
OUTPUT: 6.76

INPUT: Likewise for O=C(NCc1ccccc1)c1n[nH]c2ccc(-c3cc(F)cc(CN4CCCCC4)c3)cc12 ?
OUTPUT: 6.93

INPUT: Likewise for O=C(NCCN1CCOCC1)c1n[nH]c2ccc(-c3cccnc3)cc12 ?
OUTPUT: 8.30

INPUT: Likewise for CC(C)(C)CN1CCC(NC(=O)c2n[nH]c3cc(F)c(-c4cccnc4)cc23)CC1 ?
OUTPUT: 7.89

INPUT: Likewise for O=C(Nc1ccccn1)c1n[nH]c2ccc(-c3cncc(CN4CCCCC4)c3)cc12 ?
OUTPUT: 8.52

INPUT: Likewise for CC(C)CNC(=O)c1n[nH]c2ccc(-c3ccc(F)nc3)cc12 ?
OUTPUT: 7.21

INPUT: Likewise for [2H]C([2H])(c1cncc(-c2ccc3[nH]nc(C(=O)Nc4cccnc4)c3c2)c1)N1CCCCC1 ?
OUTPUT: 9.00

INPUT: Likewise for CC(C)CN1CCC(NC(=O)c2n[nH]c3ccc(-c4cncc(Cl)c4)cc23)CC1 ?
OUTPUT: 7.33

INPUT: Likewise for O=C(Nc1ccc(C(F)(F)F)cn1)c1n[nH]c2ccc(-c3cncc(CN4CCCCC4)c3)cc12 ?
OUTPUT: 8.00

INPUT: Likewise for O=C(NCCN1CCCCC1)c1n[nH]c2ccc(-c3cccnc3)cc12 ?
OUTPUT: 7.77

INPUT: Likewise for O=C(Nc1ccnc(N2CCCC2)c1)c1n[nH]c2ccc(-c3cccnc3)cc12 ?
OUTPUT: 8.40
